study.target: recombinant human His-tagged MDM2 protein (residues 1-118) (Homo sapiens (Human), UniProt Q00987)
Sequence (Q00987 1-118): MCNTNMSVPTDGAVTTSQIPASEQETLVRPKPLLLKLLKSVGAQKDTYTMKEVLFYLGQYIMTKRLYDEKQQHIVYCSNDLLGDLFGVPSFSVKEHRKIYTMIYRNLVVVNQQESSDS
assay.summary: Fluorescence-polarization MDM2 binding assay;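 note: fluorescence polarization read after three hours of incubation in potassium phosphate buffer containing bovine gamma globulin and Triton X-100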
settings: Table 19A; FP binding assay; read-out: MDM2 IC50
Attribute: IC50

compound	endpoint.label	recorded.result
C[C@H](N)C(=O)OC1CCC(NC(=O)[C@@H]2N[C@H](CC(C)(C)C)[C@]3(C(=O)Nc4cc(Cl)ccc43)[C@H]2c2cccc(Cl)c2F)CC1 (stereo partly shown)	IC50	< 0.1 µM
CN1CCN(CCNC(=O)[C@@H]2N[C@H](CC(C)(C)C)[C@]3(C(=O)Nc4cc(Cl)c(F)cc43)[C@H]2c2cccc(Cl)c2)CC1	IC50	< 1 µM
CC(C)(C)C[C@H]1N[C@@H](C(=O)NC2CCC(NS(=O)(=O)C(F)(F)F)CC2)[C@H](c2cccc(Cl)c2)[C@@]12C(=O)Nc1cc(Cl)c(F)cc12 (stereo partly shown)	IC50	< 5 µM

Lab note: next compound to report on.
The compound listed as CC(C)(C)C[C@H]1N[C@@H](C(=O)NC2CCN(CCF)CC2)[C@H](c2cccc(Cl)c2F)[C@@]12C(=O)Nc1cc(Cl)ccc12 has a reported IC50 of < 1 µM

###

Attribute: % of compound remaining when incubated in rat liver microsomes
assay.summary: In vitro microsomal stability, rat
Type: in vitro ADME
settings: Table 17, 10 min
Numbers only; they are read as %.

# annotated cases, reported % of compound remaining when incubated in rat liver microsomes shown
sample.smiles	recorded.result
CNC(=O)[C@@H]1N[C@H](CC(C)(C)C)[C@]2(C(=O)Nc3cc(Cl)c(F)cc32)[C@H]1c1cccc(Cl)c1	59.6
CC(C)(C)C[C@H]1N[C@@H](C(N)=O)[C@H](c2cccc(Cl)c2)[C@@]12C(=O)Nc1cc(Cl)c(F)cc12	66.1

The compound listed as CC(C)(C)C[C@H]1N[C@@H](C(=O)NCCCN2CCCC2)[C@H](c2cccc(Cl)c2F)[C@@]12C(=O)Nc1cc(Cl)c(F)cc12 has a reported % of compound remaining when incubated in rat liver microsomes of 66.5

###

Attribute: Microsomal stability, % remaining
assay.summary: In vitro microsomal stability, rat
Assay type: in vitro ADME
settings: Rat Microsome, same batch, 30 min
Numbers only; they are read as %.

# annotated cases, reported Microsomal stability, % remaining shown
sample.smiles	Microsomal stability, % remaining / %
CC(C)(C)C[C@H]1N[C@@H](C(=O)NCC[C@H](O)CN2CC[C@@H](O)C2)[C@H](c2cccc(Cl)c2)[C@@]12C(=O)Nc1cc(Cl)c(F)cc12	70.75
CC(C)(C)C[C@H]1N[C@@H](C(=O)NCC[C@H](O)CN2CCCC2)[C@H](c2cccc(Cl)c2)[C@@]12C(=O)Nc1cc(Cl)c(F)cc12	71.97

The compound listed as CC(C)(C)C[C@H]1N[C@@H](C(=O)NCC[C@H](O)CNC(C)(C)C)[C@H](c2cccc(Cl)c2)[C@@]12C(=O)Nc1cc(Cl)c(F)cc12 has a reported Microsomal stability, % remaining of 68.24

###

Tested on: cancer cell lines with wild-type p53 / mutated or deleted p53 (ATCC)
assay.summary: Cell growth assay (WST-8), other cancer cell lines
Type: cell-based
settings: Homo sapiens, PC-3, Table 19B; PC3 cells; read-out: Inhibition of cell growth IC50, PC3
endpoint.label: IC50 (µM)
Numbers only; they are read as µM.

molecule	study.target	IC50, µM
CN1[C@@H](C(=O)NCC[C@H](O)CO)[C@H](c2cccc(Cl)c2F)[C@@]2(C(=O)Nc3cc(F)c(F)cc32)[C@H]1CC(C)(C)C	cancer cell lines with wild-type p53 / mutated or deleted p53 (ATCC)	34.2
O=C(NCC[C@H](O)CO)[C@@H]1N[C@H](CCc2ccccc2)[C@]2(C(=O)Nc3cc(Cl)c(F)cc32)[C@H]1c1cccc(Cl)c1	cancer cell lines with wild-type p53 / mutated or deleted p53 (ATCC)	48.9
O=C(NCC[C@H](O)CO)[C@@H]1N[C@H](CCC2CCCC2)[C@]2(C(=O)Nc3cc(Cl)c(F)cc32)[C@H]1c1cccc(Cl)c1	cancer cell lines with wild-type p53 / mutated or deleted p53 (ATCC)	7.9
CC(C)CC(C)(C)C[C@H]1N(C)[C@@H](C(=O)NCC[C@H](O)CO)[C@H](c2ccc(F)c(Cl)c2)[C@@]12C(=O)Nc1cc(F)c(F)cc12	cancer cell lines with wild-type p53 / mutated or deleted p53 (ATCC)	8.5
CC(C)CC(C)(C)C[C@H]1N[C@@H](C(=O)NCC[C@H](O)CO)[C@H](c2cccc(Cl)c2)[C@@]12C(=O)Nc1cc(Cl)c(F)cc12	cancer cell lines with wild-type p53 / mutated or deleted p53 (ATCC)	4.7
CC(C)CC(C)(C)C[C@H]1N(C)[C@@H](C(=O)NCC[C@H](O)CO)[C@H](c2cccc(Cl)c2F)[C@@]12C(=O)Nc1cc(F)c(F)cc12	cancer cell lines with wild-type p53 / mutated or deleted p53 (ATCC)	7.4
CN1[C@@H](C(=O)NCC[C@H](O)CO)[C@H](c2cccc(Cl)c2)[C@@]2(C(=O)Nc3cc(Cl)c(F)cc32)[C@H]1CCCc1ccccc1	cancer cell lines with wild-type p53 / mutated or deleted p53 (ATCC)	7.2
CN1[C@@H](C(=O)NCC[C@H](O)CO)[C@H](c2cccc(Cl)c2)[C@@]2(C(=O)Nc3cc(Cl)c(F)cc32)[C@H]1CCc1cccs1	cancer cell lines with wild-type p53 / mutated or deleted p53 (ATCC)	7.7

The molecule listed as O=C(NCC[C@H](O)CO)[C@@H]1N[C@H](CCCc2cccs2)[C@]2(C(=O)Nc3cc(Cl)c(F)cc32)[C@H]1c1cccc(Cl)c1 has a reported IC50 of 12.4

The molecule listed as CC(C)CC(C)(C)C[C@H]1N(C)[C@@H](C(=O)NCC[C@H](O)CO)[C@H](c2cccc(Cl)c2F)[C@@]12C(=O)Nc1cc(Cl)c(F)cc12 has a reported IC50 of 5.4
